B1: SPATS1 (parent)
chain: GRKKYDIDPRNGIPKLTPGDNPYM

Variants of: B1
Assay: protein stability index of a GFP-peptide fusion (GPS, HEK-293T) (PSI 1-6); higher = more stable;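 note: lentivirally expressed fusions sorted by FACS into six bins by GFP to DsRed ratio, PSI derived from sequencing read proportions per bin multiplied by bin number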
Settings: c terminus: a fixed tail appended
measureName: protein stability index

{"columns": ["changes", "measuredResult"],
 "data": [
  ["M24F", 3.1],
  ["P9C", 3.72],
  ["D20R", 3.74],
  ["G19L", 3.44],
  ["N21D", 4.23],
  ["D6G", 3.51],
  ["K15W", 1.98],
  ["N11E", 3.82],
  ["Y23A", 4.3],
  ["P9N", 3.49],
  ["Y5P", 3.38],
  ["Y23T", 4.6],
  ["N11P", 3.8],
  ["N11I", 3.22],
  ["I13C", 3.82],
  ["P22C", 3.34],
  ["R2S", 3.66],
  ["L16G", 4],
  ["G1T", 3.4],
  ["R2A", 3.51],
  ["I7K", 4.19],
  ["P22W", 2.62],
  ["G12S", 3.57],
  ["G12A", 3.66],
  ["G12R", 3.42],
  ["K3P", 3.29],
  ["G12H", 3.32],
  ["N21R", 3.41],
  ["M24L", 3.62],
  ["Y23S", 3.94],
  ["I13Y", 2.81],
  ["M24P", 3.98],
  ["K15P", 3.62],
  ["D20T", 3.12],
  ["I7R", 4.22],
  ["T17W", 2.47],
  ["K3Y", 2.77],
  ["N21S", 3.72],
  ["I7H", 3.81],
  ["G19A", 3.32],
  ["P22T", 4.01],
  ["L16W", 2.67]
]}
